These data points were gathered from a melting point compilation (Tetko et al.; mined from patent text by program, amines drawn as free bases though some values may be those of a salt).

Collected melting point values appear next to each entry.
Readout Kind: melting point

>  <Compound>
O=C(O)c1[nH]c2ccc(Cl)cc2c1S(=O)(=O)c1nccs1

>  <Value Observed>
260 to 261 °C

$$$$
>  <Compound>
CC1(C)C(=O)N(c2ccnc(N)c2)c2cccnc21

>  <Value Observed>
210 to 211 °C

$$$$
>  <Compound>
CC1=Nc2ccccc2C(=O)C1

>  <Value Observed>
198 to 200 °C

$$$$
>  <Compound>
Nc1c(Cl)cc(C2=NNC(=O)Cc3cc4c(cc32)OCO4)cc1Cl

>  <Value Observed>
149 to 151 °C

$$$$
>  <Compound>
COCn1nccc1C(=O)c1cc2c(c(Cl)c1Cl)OC(C(=O)O)O2 (stereo unspecified)

>  <Value Observed>
168 to 170 °C

$$$$
>  <Compound>
OCC1OC(n2cnc3c(NCc4cccc(O)c4)ncnc32)C(O)C1O (stereo unspecified)

>  <Value Observed>
196 °C

$$$$
>  <Compound>
Clc1ccc(-n2nc3c(c2Br)CCCC3)cc1

>  <Value Observed>
101 to 102 °C

$$$$
>  <Compound>
CN(C#N)C(=O)CCCCC(=O)N(C)C#N

>  <Value Observed>
86.1 to 87.8 °C

$$$$
>  <Compound>
O=C1Cc2ccc(N3C(=O)C4=C(CCCC4)C3=O)cc2N1

>  <Value Observed>
225 to 226 °C

$$$$
>  <Compound>
O=C(O)c1cc2c(cc1[N+](=O)[O-])OCO2

>  <Value Observed>
160 to 163 °C

$$$$
>  <Compound>
CC(O)C(=O)Nc1ccc(C2=NNC(=O)CC2C)cc1 (stereo unspecified)

>  <Value Observed>
181 to 182 °C

$$$$

* * *

Collected melting point values appear next to each entry.

>  <Molecule>
COC(=O)C1=Cc2cc(Br)ccc2S(=O)(=O)CC1

>  <melting point>
162 to 164 °C

$$$$
>  <Molecule>
CC(C)(C)C1CCc2nnc(Cl)cc2C1 (stereo not given)

>  <melting point>
96 to 97 °C

$$$$
>  <Molecule>
CN(C)c1ccc(-c2nc(Cl)c3ccccc3n2)cc1

>  <melting point>
167 to 170 °C

$$$$
>  <Molecule>
CCC(=O)NC(=S)NCC1CC2c3cccc4[nH]cc(c34)CC2N(C)C1 (stereo not given)

>  <melting point>
225 to 226 °C

$$$$
>  <Molecule>
Cc1cc(-n2ccnc2)c2cccc(OCc3c(Cl)ccc(S(=O)(=O)N4CCC[C@H]4C(=O)NCCN4CCCCC4)c3Cl)c2n1

>  <melting point>
108 °C

$$$$

* * *

>  <Compound>
O=C(c1ccc(F)cc1)N1CCCC(c2nc(Oc3ccccc3)no2)C1 (stereo not given)

>  <melting point>
96 to 100 °C

$$$$
>  <Compound>
COC(=O)c1cccc(Cn2c(=O)c(=O)[nH]c3cc([N+](=O)[O-])ccc32)c1

>  <melting point>
265 to 267 °C

$$$$
>  <Compound>
Cc1nc(NC(=O)c2cccnc2)sc1C(=O)NCc1ccccc1

>  <melting point>
224 to 226 °C

$$$$
>  <Compound>
CCOC(=O)c1sc(N)nc1CC

>  <melting point>
177 to 179 °C

$$$$
>  <Compound>
COc1ccc(Cc2nc3n(c2Cc2ccc(OC)cc2)CCS3=O)cc1 (stereo not given)

>  <melting point>
190 to 191 °C

$$$$
